Values compiled from patent US20040018971A1.

- TEST SYSTEM: HLA-A*0201 (human)
- METHOD NOTES: competition with 125I probe peptide for purified HLA
- TEST CONDITIONS: remark: other sources report otherwise
MEASUREMENT LABEL: IC50 (nM)
Number in nM, nothing else.

Could you share which IC50 value was measured for VMAGVGSPYV [Her2/neu.773 …] ?
200
